Catalogue of Kd values
# Subject of test: T1, IGF1R-Fc (extracellular domain of human IGF1R aa 1-932 fused to hinge and constant regions of human IgG1) (human, UniProt P08069 31-932)
# T1 construct: range 1-932; made in house by transient transfection, purified on Protein A; also called IGF-IR-Fc; not shown: hinge and constant regions of human IgG1
# Protocol: SPR Biacore, IGF1R-Fc
Give a bare numeral; the unit pM is implied.

I1(S62C)-GS10-E5 pegylated (designed binder, PEG on Cys at position 62 of I1 (position of SEQ ID NO: 1), also called I1(S62C)-GS10-E5(5)) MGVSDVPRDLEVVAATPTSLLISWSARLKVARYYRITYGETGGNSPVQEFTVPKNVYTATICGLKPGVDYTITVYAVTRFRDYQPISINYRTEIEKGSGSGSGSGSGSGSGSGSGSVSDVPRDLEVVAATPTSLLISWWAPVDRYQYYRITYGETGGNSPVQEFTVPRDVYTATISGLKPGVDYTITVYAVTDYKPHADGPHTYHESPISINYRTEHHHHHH = 700
I1-GS10-E5(S62C) pegylated (designed binder, PEG on Cys at position 62 of E5 (position of SEQ ID NO: 1), also called I1-GS10-E5(S62C)(6)) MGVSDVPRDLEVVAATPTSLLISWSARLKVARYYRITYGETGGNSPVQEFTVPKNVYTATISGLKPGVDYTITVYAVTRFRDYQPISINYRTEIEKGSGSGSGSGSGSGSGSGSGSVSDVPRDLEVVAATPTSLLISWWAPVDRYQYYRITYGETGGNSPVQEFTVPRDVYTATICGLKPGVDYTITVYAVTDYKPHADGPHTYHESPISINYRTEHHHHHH = 260

--- query ---
What Kd value was documented for this binder, I1-GS10-E5(S91C) pegylated (designed binder, PEG on Cys at position 91 of E5 (position of SEQ ID NO: 1), also called I1-GS10-E5(S91C)(8)) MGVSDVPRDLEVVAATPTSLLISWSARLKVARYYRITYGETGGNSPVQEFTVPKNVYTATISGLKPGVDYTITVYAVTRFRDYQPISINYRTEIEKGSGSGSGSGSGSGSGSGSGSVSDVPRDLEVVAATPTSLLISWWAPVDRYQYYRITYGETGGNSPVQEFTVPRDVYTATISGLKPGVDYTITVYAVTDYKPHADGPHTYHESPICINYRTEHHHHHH ? 280
